Quick list: Kd per entry.
- test system: T1, EsCas13d, nuclease-dead (Eubacterium siraeum, UniProt B0MS50, R295A;H300A;R849A;H854A)
- T1 sequence: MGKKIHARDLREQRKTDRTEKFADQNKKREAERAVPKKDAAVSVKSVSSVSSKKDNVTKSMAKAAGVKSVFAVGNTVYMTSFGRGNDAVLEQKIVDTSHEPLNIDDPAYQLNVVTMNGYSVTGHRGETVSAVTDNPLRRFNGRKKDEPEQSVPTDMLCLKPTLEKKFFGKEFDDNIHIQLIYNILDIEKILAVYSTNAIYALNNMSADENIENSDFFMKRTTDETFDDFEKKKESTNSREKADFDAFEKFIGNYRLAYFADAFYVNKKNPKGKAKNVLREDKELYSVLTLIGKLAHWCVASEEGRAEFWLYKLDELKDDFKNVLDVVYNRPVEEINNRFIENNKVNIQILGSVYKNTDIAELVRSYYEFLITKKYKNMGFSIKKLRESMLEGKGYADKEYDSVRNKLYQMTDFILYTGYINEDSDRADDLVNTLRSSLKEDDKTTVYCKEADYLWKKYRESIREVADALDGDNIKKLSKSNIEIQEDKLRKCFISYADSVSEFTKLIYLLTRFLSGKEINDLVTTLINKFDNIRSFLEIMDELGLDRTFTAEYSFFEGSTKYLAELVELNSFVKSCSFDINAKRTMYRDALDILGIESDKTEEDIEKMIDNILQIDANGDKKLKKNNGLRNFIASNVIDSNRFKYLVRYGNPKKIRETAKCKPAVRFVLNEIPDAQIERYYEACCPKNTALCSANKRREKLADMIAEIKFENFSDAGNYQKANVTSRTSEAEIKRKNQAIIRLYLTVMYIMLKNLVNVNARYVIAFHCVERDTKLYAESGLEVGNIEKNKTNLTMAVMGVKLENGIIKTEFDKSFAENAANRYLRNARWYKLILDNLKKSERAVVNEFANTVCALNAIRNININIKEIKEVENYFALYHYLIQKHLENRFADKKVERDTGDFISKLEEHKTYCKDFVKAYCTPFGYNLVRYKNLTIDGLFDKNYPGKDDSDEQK
- test description: crRNA (strand 1, pre-loaded); Mg2+; 40 mM Tris-HCl pH 7.5, 150 mM NaCl, 6 mM MgCl2, 1 mM DTT, 0.1% Tween-20, 0.2 mg/ml BSA; 25 C; 10 min per concentration, then washed
- experimental context: tags: His6-TwinStrep-SUMO cleaved; N-terminal SNAP kept (SNAP-Surface 488); label: 3' end held by stalled T7 RNA polymerase
Write it as a number; the unit nM goes unstated.

- target 1 MT 5'PFS GUU 3'PFS UCC (mixed) RNA 1: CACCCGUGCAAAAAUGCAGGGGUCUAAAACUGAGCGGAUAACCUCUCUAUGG RNA 2: GGGAAUGGAUCCACAUCUACGAAUUCGUUCCAUAGAGAGGUUAUCCGCUCAUCCAGAUCGGAAGAGCACACGU: 14.8

(Q) Any idea what Kd was measured for target 2 MT 5'PFS GGC 3'PFS AAC (mixed) RNA 1: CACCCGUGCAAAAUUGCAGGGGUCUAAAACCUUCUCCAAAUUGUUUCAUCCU RNA 2: GGGAAUGGAUCCACAUCUACGAAUUCGGCAGGAUGAAACAAUUUGGAGAAGAACAGAUCGGAAGAGCACACGU ?
(A) 11.7

(Q) Any idea what Kd was measured for target 2 MT 5'PFS ACU 3'PFS CAC (mixed) RNA 1: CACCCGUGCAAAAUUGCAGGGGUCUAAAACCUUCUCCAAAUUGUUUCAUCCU RNA 2: GGGAAUGGAUCCACAUCUACGAAUUCACUAGGAUGAAACAAUUUGGAGAAGCACAGAUCGGAAGAGCACACGU ?
(A) 4.1

(Q) Any idea what Kd was measured for target 1 C6A,G15A (mixed) RNA 1: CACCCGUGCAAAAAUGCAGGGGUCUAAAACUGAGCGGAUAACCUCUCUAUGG RNA 2: GGGAAUGGAUCCACAUCUACGAAUUCGUACCAUAGAAAGGUUAUCAGCUCACCGAGAUCGGAAGAGCACACGU ?
(A) 11.9
